Where do the numbers come from? From paper PMC7822874.

experiment: in vitro; settings: human, HepG2-A16-CD81EGFP cells, uninfected; further: reference of the scale not given here
Parameter Measured: viability at 48 h (%)
Quick note: give the figure in %, leave out the unit.

Give the measured viability at 48 h of Cc1[nH]c2c(C)cccc2c(=O)c1Br . 107

Give the measured viability at 48 h of CN(C(=O)c1ccc(NC(=O)Cc2cccc(NC(=O)C3CCCN(C(=O)CCc4ccccc4)C3)c2)cc1)C1CCCC1 (stereo not drawn) . 104

Give the measured viability at 48 h of N=c1ccn(Cc2ccc(Cl)cc2Cl)cc1 . 89.2

Give the measured viability at 48 h of CC(Sc1nc2ccccc2c(=O)n1C)C(=O)Nc1ccc2c(c1)OCCO2 (stereo not drawn) . 84

Give the measured viability at 48 h of O=C(/C=C/c1ccco1)NC(S)=Nc1ccccc1N1CCCC1 . 107

Give the measured viability at 48 h of CCCc1ccc(OCc2nc(-c3ccc(NC(=O)c4cccs4)cc3)no2)cc1 . 97.2

Give the measured viability at 48 h of CCCCCCCNC(=O)C1(CC2CC(c3ccc(Cl)cc3)=NO2)CCN(C(=O)c2cc(OCC)c(OCC)c(OCC)c2)CC1 (stereo not drawn) . 103

Give the measured viability at 48 h of CCOC(=O)c1c(-c2ccccc2)oc2ccc(O)c(CN3CCCC3)c12 . 98.8

Give the measured viability at 48 h of Cc1cc(C(C)c2ccccc2)c(O)c(CN2CCOCC2)c1C (stereo not drawn) . 108

Give the measured viability at 48 h of COC(=O)c1cc2sc(Cl)cc2n1CC(=O)Nc1ccc(OC)c(OC)c1OC . 101

Give the measured viability at 48 h of O=C(c1cnn2c(C(F)F)cc(-c3ccccc3)nc12)N1CCCCC1c1cccnc1 (stereo not drawn) . 102

Give the measured viability at 48 h of CCn1cc(C(=O)N[C@@H](CCSC)C(=O)NC(C)(C)CO)c(=O)c2cc3c(cc21)OCO3 . 103

Give the measured viability at 48 h of Cc1cn(-c2cc(C(=O)Nc3ccc(C)c(NC(=O)C(=O)c4c[nH]c5ccccc45)c3)cc(C(F)(F)F)c2)cn1 . 112

Give the measured viability at 48 h of Cc1ccc(S(=O)(=O)c2nnn3c2nc(N2CCN(c4ccccn4)CC2)c2ccccc23)cc1 . 98.6

Give the measured viability at 48 h of COc1cccc(N2C(N)=NC(N)=NC2(C)C)c1 . 103

Give the measured viability at 48 h of Nc1cc[n+](CC(=O)c2ccc3c(c2)OCCO3)cc1 . 97.8

Give the measured viability at 48 h of CCOC(=O)c1nc2cc3n(c(CC(C)C)c-2c1C)CC(C)=C3C . 108

Give the measured viability at 48 h of Cc1cc(C)cc(Nc2cc(C)nc3nc(C)nn23)c1 . 112
